Each item that follows carries a reported pKd.
# target: T1, wt^Sd (Scalloped 223–440), N-biotinylated-Avitagged (Drosophila melanogaster, UniProt P30052 223-440, biotin on the Avi-tag; acylated (incubated with myristoyl coenzyme A; purified as a mixture of acylated and non-acylated proteins))
# T1 construct: Immobilised on SPR sensor chips by the biotinylated Avi-tag; also called Sd^223–440; source: E. coli BL21(DE3) with a BirA plasmid, purified (HisTrap, HRV 3C cleavage, Superdex 75); not shown: His6, N-terminal, cleaved; Avi-tag, N-terminal, kept
# T1 sequence (looked up): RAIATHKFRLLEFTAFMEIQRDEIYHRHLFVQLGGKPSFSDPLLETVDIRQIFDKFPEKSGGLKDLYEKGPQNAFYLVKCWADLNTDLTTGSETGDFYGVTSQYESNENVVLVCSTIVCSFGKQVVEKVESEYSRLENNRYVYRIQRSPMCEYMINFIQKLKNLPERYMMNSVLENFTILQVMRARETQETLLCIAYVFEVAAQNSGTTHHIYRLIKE
# assay protocol: SPR; N-biotinylated-Avitagged Sd (wild type or mutant) immobilised on sensor chips; Yki or Vg fragment as analyte; Kd at equilibrium by a standard SPR method
# setup conditions: both partners purified
pKd: −log10 of the molar value.

{"columns": ["binder", "reported relation", "pKd"],
 "data": [
  ["Ac-CVVFTNYSGDTASQVDEHFSRALNYNNKDSKESSSPMSNRNFPPSFWNSN-NH2 (peptide, UniProt Q26366 288-337, looked up, source: synthetic peptide, bought: Biosynthan) [Vg^288–337]", ">", 8.70],
  ["Ac-CVVFTNYSGDTASQVDEHFSRALN-NH2 (peptide, UniProt Q26366 288-311, looked up, Vestigial (Vg), Drosophila melanogaster, UniProt Q26366, residues 288–311 (TONDU domain); also called TONDU domain of Vg; β-strand:α-helix region of Vg; source: synthetic peptide, bought: Biosynthan) [Vg^288–311]", "=", 6.54],
  ["Ac-TDDNLQALFDSVLNPGDAKRPLQLPLRMRKLPNSFFTPP-NH2 (peptide, UniProt Q45VV3 41-79, looked up, Yorkie (Yki), Drosophila melanogaster, UniProt Q45VV3, residues 41–79 (lacks the putative β-strand); source: synthetic peptide, bought: Biosynthan) [Yki^41–79]", "=", 7.16],
  ["Ac-NNLVVRVNQDTDDNLQALFDSVLNPGDAKRPLQLPLRMRKLPNSFFTPP-NH2 (peptide, UniProt Q45VV3 31-79, looked up, Yorkie (Yki), Drosophila melanogaster, UniProt Q45VV3, residues 31–79; only Yki 30–146 and Vg 263–382 are described as recombinant; source: synthetic peptide, bought: Biosynthan) [Yki^31–79]", "=", 7.64]
]}

Data origin: paper PMC7566471
